B1: Pistol ribozyme (parent)
chain: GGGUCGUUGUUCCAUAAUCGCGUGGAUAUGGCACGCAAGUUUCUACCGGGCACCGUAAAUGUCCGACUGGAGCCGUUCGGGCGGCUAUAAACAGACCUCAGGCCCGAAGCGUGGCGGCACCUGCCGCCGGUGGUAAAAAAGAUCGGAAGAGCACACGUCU

# Variants of: B1
# TEST SUMMARY: aptazyme ON/OFF ratio, guanine; higher = stronger switching; co-transcriptional cleavage with and without guanine
RECORDED METRIC: aptazyme ON/OFF ratio
One number for each entry.

Some entries whose results are on file:
VARIANT IDENTIFIER	RECORDED METRIC	RECORDED NUMBER
U8C G9U U11A C12A C13G	aptazyme ON/OFF ratio	1.16
G9A U10G U11G C12A	aptazyme ON/OFF ratio	1.11
U7A U8G G9U U10C U11C C12A C13A	aptazyme ON/OFF ratio	1.21
U8C G9A U11C C12A C13G	aptazyme ON/OFF ratio	1.14
U7G U10G U11C C12A C13U	aptazyme ON/OFF ratio	1.17
U7C G9C U11C C12A C13G	aptazyme ON/OFF ratio	1.02
U7A U8A G9A U11A C12G C13U	aptazyme ON/OFF ratio	1.25

Q) Report aptazyme ON/OFF ratio, nothing else, for this variant: U7A U8C U10G U11A C12U C13G
A) 1.14
